- TGT: T1, Hu/NoV/GI.1/Norwalk/1968/U.S. VLP (human norovirus GI.1, UniProt Q83884 1-530 (Norovirus (strain entry), limits assumed))
- T1 construct: mature; full-length VP1 (ORF2) assembled as virus-like particle in baculovirus/Sf9; also called Norwalk VLP; NV
- T1 sequence (looked up): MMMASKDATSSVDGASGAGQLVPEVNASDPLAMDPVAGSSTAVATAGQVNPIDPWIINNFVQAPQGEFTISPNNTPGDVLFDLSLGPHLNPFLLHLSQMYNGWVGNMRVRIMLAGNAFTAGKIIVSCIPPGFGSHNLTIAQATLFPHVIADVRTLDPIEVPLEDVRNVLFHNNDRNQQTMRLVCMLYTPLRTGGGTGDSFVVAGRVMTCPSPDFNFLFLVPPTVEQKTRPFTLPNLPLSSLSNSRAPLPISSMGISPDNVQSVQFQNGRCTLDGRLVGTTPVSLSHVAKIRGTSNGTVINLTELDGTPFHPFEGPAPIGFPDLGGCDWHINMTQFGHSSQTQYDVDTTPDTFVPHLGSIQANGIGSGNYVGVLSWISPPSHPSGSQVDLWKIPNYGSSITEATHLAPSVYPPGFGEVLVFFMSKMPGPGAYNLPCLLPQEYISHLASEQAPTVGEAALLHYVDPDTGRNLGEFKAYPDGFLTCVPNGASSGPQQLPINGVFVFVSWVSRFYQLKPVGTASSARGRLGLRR
- TEST_DESCRIPTION: VLP ELISA
MEASURED_QUANTITY: minimum concentration of VHH able to recognize 100 ng of VLP

Guide cases for minimum concentration of VHH able to recognize 100 ng of VLP, answers given:
Item under review: VHH 13.1 (VHH, llama VHH, Norwalk library, subtractive biopanning; His6 tag; also called 13.2; clone 13) VHH: QVKLQESGGGWVQAGGSLRLSCAASALTASITTMGWFRQTPEKEREFLAAINWTGDYKYYADSVKGRFTISRDNAKNTVDLQMNQLKPEDTAVYYCAASKIRNDIYLNDYTWYQYWGQGTQVTVSS . Reported minimum concentration of VHH able to recognize 100 ng of VLP?
2 ng/well

# minimum concentration of VHH able to recognize 100 ng of VLP lookup, item VHH 12.2 (VHH, llama VHH, Norwalk library; pHEN6, C-terminal His6 tag) VHH: DVQLQASGGGLVQAGGSLRLSCAASGSTISSYAMAWYRQAPGKRRELVAHISSGGSTNYADSVKGRFTISRDNAKNTVYLQMNSLKPEDTAVYYCNIYYGGDYYYTGVKPNPWGQGTQVTVSS
1 ng/well

Given the entry VHH 6.3 (VHH, llama VHH, Norwalk (GI.1) library; also called clone 6.3) VHH: QVQLQQSGGGLVQPGGSLRLSCAASGSIFSIHTMGWYRQAPGKQRELVTTITTGGTTNYADSVKGRFTISRDDAKNTVYLQMNNLKPEDTAVYYCYALIQTASTTWYRQYWGQGTQVTVSS , report its measured minimum concentration of VHH able to recognize 100 ng of VLP.
0.5 ng/well

minimum concentration of VHH able to recognize 100 ng of VLP for VHH 7.3 (VHH, llama VHH, Norwalk library; pHEN6, C-terminal His6 tag; also called clone 7.3) VHH: QVKLQESGGGLVQPGGSLRLSCTASRSIFTRAMAWYRQAPGKQRELVAAIDSGDRTHYADSVKGRFTISRNNAKDTLYLQMNSLKSEDTAVYYCNANLGALLDYWGQGTQVTVSS ?
0.5 ng/well

Item under review: VHH 9.8 (VHH, llama VHH, Norwalk library; His6 tag) VHH: QVKLQQSGGGLVQAGGSLRLSCAASGTFSRYAMGWFRQAPGKEREFVAAINWTGGSTYYADSVKGRFTISGDNAKNTVYLQMNSLKPGDTAVYYCAAEVHPGDYGLTYMQSQYEYDYWGQGTQVTVSS . Reported minimum concentration of VHH able to recognize 100 ng of VLP?
0.5 ng/well

Okay, next one:
Entry VHH 14.5 (VHH, llama VHH, Norwalk library; pHEN6, C-terminal His6 tag) VHH: DVQLQASGGGLVQAGGSLRLSCVASARTFSSYAMGWFRQAPGKEREFVAAISWSGASTDYADSVKGRFTISRDNAKKTVYLQMNTLKPEDTAVYYCAAHHITPTGSYYYSEPLPVDMVYDYWGQGTQVTVSS : reported minimum concentration of VHH able to recognize 100 ng of VLP = ?
0.5 ng/well
